method_summary: toxicity assay, VERO-E6 cells enriched for ACE-2 in the absence of virus, CellTiter-Glo
recorded_conditions: African green monkey, VERO-E6 cells enriched for ACE-2 receptor, no virus
Items are presented alongside their recorded CC50.

| compound | assay_result |
| --- | --- |
| COc1ccc2cc1Oc1ccc(cc1)C[C@H]1c3cc(c(OC)cc3CCN1C)Oc1c(OC)c(OC)cc3c1[C@H](C2)N(C)CC3 | 6.28 µM |
| CCC(CC)COC(=O)[C@H](C)N[P@](=O)(OC[C@H]1O[C@@](C#N)(c2ccc3c(N)ncnn23)[C@H](O)[C@@H]1O)Oc1ccccc1 [Remdesivir, remdesivir, reference compound] | > 30 µM |
| CCN(CC)CCCC(C)Nc1ccnc2cc(Cl)ccc12 (centres unmarked) [Chloroquine, chloroquine, reference compound] | > 30 µM |

Task item: // CC50 lookup, key: CCN(CCO)CCCC(C)Nc1ccnc2cc(Cl)ccc12 (centres unmarked) [Hydroxychloroquine, hydroxychloroquine, reference compound]
Reply: > 30 µM

Task item: // CC50 lookup, key: CCOC(=O)[C@H]1O[C@@H]1C(=O)N[C@@H](CC(C)C)C(=O)NCCC(C)C [E64d (aloxistatin), aloxistatin, reference compound]
Reply: > 30 µM

---

Items are presented alongside their recorded IC50.
System: SARS-CoV-2
method_summary: cell viability (CPE) assay, VERO-E6 cells enriched for ACE-2 infected with SARS-CoV-2, CellTiter-Glo
Type: cell-based
recorded_conditions: Severe acute respiratory syndrome coronavirus 2, Vero C1008; VERO-E6 cells enriched for ACE-2 plus SARS-CoV-2; positive controls; read-out: IC50 (μM), In Vitro Anti-SARS-CoV-2 Activity
Give a bare numeral; the unit µM is implied.

These recorded examples may help you get a feel for the data.
| compound | IC50 (µM) |
| --- | --- |
| CCN(CCO)CCCC(C)Nc1ccnc2cc(Cl)ccc12 (stereo not drawn) [Hydroxychloroquine, hydroxychloroquine, reference compound] | 3.53 |
| CCOC(=O)[C@H]1O[C@@H]1C(=O)N[C@@H](CC(C)C)C(=O)NCCC(C)C [E64d (aloxistatin), aloxistatin, reference compound] | 7.48 |

# context switch: different compound, same IC50
Task item: // IC50 lookup, key: CCN(CC)CCCC(C)Nc1ccnc2cc(Cl)ccc12 (stereo not drawn) [Chloroquine, chloroquine, reference compound]
Reply: 3.78
